# Tested on: Influenza A virus H3N2
# Assay summary: Antiviral activity against Influenza A virus H3N2 infected in dog MDCK cells assessed as inhibition in virus-induced cytopathic effect incubated for 40 hrs
# Assay type: functional, organism-based
pIC50: −log10 of the molar value.
Listing of recorded pIC50 by entry.

Prompt line: Given the entry `C=C(C(=O)OC)[C@@H]1CC[C@H](C)[C@H]2C(=C(C)C(=O)[C@H]2NS(=O)(=O)c2ccc(C)cc2)C1` , report its measured pIC50.
Response line: < 4.83

Prompt line: Now consider `C=C(C(=O)Nc1ccc(B(O)O)cc1)[C@@H]1CC[C@H](C)[C@@H]2CC(=O)C(C)=C2C1` and answer again.
Response line: < 3.35

Prompt line: Now consider `C=C(C(=O)OC)[C@@H]1CC[C@H](C)[C@H]2C(=C(C)C(=O)[C@H]2NC(=O)CC#N)C1` and answer again.
Response line: < 3.31

Prompt line: Now consider `C=C(C(=O)OC)[C@@H]1CC[C@H](C)[C@H]2C(=C(C)C(=O)[C@H]2NC(=O)CNC(=O)c2ccccc2)C1` and answer again.
Response line: < 3.94

* * *

# Assay summary: Selectivity index, ratio of TC50 for cytotoxicity against dog MDCK cells to IC50 for antiviral activity against Influenza B virus infected in dog MDCK cells
# Assay type: toxicity, cell-based
# Condition parameters: read-out: Selectivity Index
Please use satisfied whenever selectivity ratio is not below 2, and not satisfied whenever it is.

Smiles repr | Category label
C=C(C(=O)Nc1ncc(B(O)O)cn1)[C@@H]1CC[C@H](C)[C@@H]2CC(=O)C(C)=C2C1 | satisfied

Prompt line: Is reported selectivity ratio greater than or equal to 2 here: `C=C(C(=O)OC)[C@@H]1CC[C@H](C)[C@H]2C(=C(C)C(=O)[C@H]2NC(C)=O)C1`
Response line: not satisfied

Prompt line: Now consider `C=C(C(=O)OC)[C@@H]1CC[C@H](C)[C@H]2C(=C(C)C(=O)[C@H]2NC(=O)c2ccccc2)C1` and answer again.
Response line: not satisfied

Prompt line: Now consider `C=C(C(=O)OC)[C@@H]1CC[C@H](C)[C@H]2C(=C(C)C(=O)[C@H]2NC(=O)CC#N)C1` and answer again.
Response line: satisfied

Prompt line: Now consider `NC(=O)c1ncn([C@@H]2O[C@H](CO)[C@@H](O)[C@H]2O)n1` and answer again.
Response line: satisfied

* * *

Listing of recorded pIC50 by entry.
# System: Influenza A virus H3N2
# Assay summary: Antiviral activity against Influenza A virus H3N2 infected in dog MDCK cells assessed as inhibition in virus-induced cytopathic effect incubated for 40 hrs
# Format: functional, organism-based
pIC50: −log10 of the molar value.

Solved entries (count: 3):
Smiles repr | Reported result
C=C(C(=O)OC)[C@@H]1CC[C@H](C)[C@H]2C(=C(C)C(=O)[C@H]2NC(=O)c2ccccc2)C1 | < 4.78
C=C(C(=O)Nc1ccc2c(c1)COB2O)[C@@H]1CC[C@H](C)[C@@H]2CC(=O)C(C)=C2C1 | < 4.31
C=C(C(=O)OC)[C@@H]1CC[C@H](C)[C@H]2C(=C(C)C(=O)[C@H]2NC(=O)c2ccc(B(O)O)cc2)C1 | < 4.35

Continue with the next molecule.
Prompt line: // map `C=C(C(=O)OC)[C@@H]1CC[C@H](C)[C@@H]2CC(=O)C(C)=C2C1` to recorded pIC50 (system: Influenza A virus H3N2)
Response line: < 4.14
